Below: a set of entries, each annotated with reported melting point.

Reported melting point of `O=C1O/C(=C\c2ccc(-c3ccccc3)cc2)C(O)=C1c1csc2ccccc12` : 270 °C

Notebook: `COc1cccc(C2=C(O)/C(=C/c3cccc4ccccc34)OC2=O)c1` , melting point read as 214 to 216 °C

Looking up O=C1O/C(=C\c2ccc(-c3ccccc3)cc2)C(O)=C1c1cc(Cl)cc(Cl)c1 [Example 68] , I see its melting point listed as 232 to 235 °C

Value of melting point reported for the compound `O=Cc1cccc(C2=C(O)/C(=C/c3cccc4ccccc34)OC2=O)c1` is 220 to 221 °C

Lab note: `O=C1O/C(=C\c2ccc(Cl)cc2)C(O)=C1c1ccc2ccccc2c1` gave melting point of 243 to 250 °C

// recorded melting point for `COc1ccc(C2=C(O)/C(=C/c3ccc4ccccc4c3)OC2=O)cc1` : 257 to 258.5 °C

Value of measured melting point for the entry `O=C1O/C(=C\c2ccc(Cl)cc2)C(O)=C1c1cccc2ccccc12` : 235 to 237 °C

The compound listed as `O=C1O/C(=C\c2ccc(-c3ccccc3)cc2)C(O)=C1c1cccc(Cl)c1` has a reported melting point of 248 to 250 °C

Per the records, this compound ( `Cc1ccc(/C=C2\OC(=O)C(c3ccc4ccccc4c3)=C2O)s1` ) has melting point equal to 144 to 145 °C (dec.)

----------
- Test system: enterococci
- Experiment Summary: Minimum inhibitory concentration, microdilution broth method, enterococci
- Assay type: cell-based
- Experimental Setup: Enterococcus faecalis, E. faecalis GC 4555; Mueller-Hinton broth, 18-22 hours at 35° C.; read-out: MIC E. faecalis GC 4555
# MIC per record follows
Express your answer in µg/mL, writing the number without its unit.

Take a look at these entries with their results.
Mol Smiles: O=C1O/C(=C\c2cccc3ccccc23)C(O)=C1c1cccc2ccccc12
Endpoint Result: 64
//
Mol Smiles: O=C1O/C(=C\C2CCCCC2)C(O)=C1c1cccc(C(F)(F)F)c1
Endpoint Result: 64
//
Mol Smiles: O=C1O/C(=C\c2cccc3ccccc23)C(O)=C1c1cccc(C(F)(F)F)c1
Endpoint Result: 16
//
Mol Smiles: O=C1O/C(=C\c2ccc(-c3ccccc3)cc2)C(O)=C1c1ccc2ccccc2c1
Endpoint Result: 8
//
Mol Smiles: CC(C)(C)c1ccc(-c2ccc(C3=C(O)/C(=C/c4cccc(C(F)(F)F)c4Cl)OC3=O)cc2)cc1
Endpoint Result: 4
//
Mol Smiles: O=C1O/C(=C\c2cc(C(F)(F)F)ccc2F)C(O)=C1c1ccc(-c2ccccc2)cc1
Endpoint Result: 32

Input `O=C1O/C(=C\c2ccc(Cl)cc2)C(O)=C1c1ccc(-c2ccccc2)cc1` . Output MIC: 8

The value of MIC measured for the compound `O=C1O/C(=C\c2ccc(-c3ccccc3)cc2)C(O)=C1c1ccc(Cl)c(Cl)c1` turned out to be 2

----------
- Study System: E. coli Enopyruvyl-UPD-N-acetylglucosamine reductase, Mur B (Escherichia coli, UniProt P08373)
- Sequence (P08373 whole entry): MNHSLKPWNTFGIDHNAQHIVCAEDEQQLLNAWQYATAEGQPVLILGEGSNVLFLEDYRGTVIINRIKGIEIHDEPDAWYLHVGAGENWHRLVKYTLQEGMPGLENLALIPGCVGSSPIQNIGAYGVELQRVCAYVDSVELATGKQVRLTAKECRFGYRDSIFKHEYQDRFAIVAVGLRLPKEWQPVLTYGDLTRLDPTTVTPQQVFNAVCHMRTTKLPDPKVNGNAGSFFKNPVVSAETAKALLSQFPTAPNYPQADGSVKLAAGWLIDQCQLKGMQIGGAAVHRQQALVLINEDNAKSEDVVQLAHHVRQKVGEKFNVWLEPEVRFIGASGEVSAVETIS
- Experiment Summary: biochemical
- Experimental Setup: (E) E. coli enzyme; read-out: MurB IC50 (converted)
API: label(entry) gives y if the entry's IC50 is strictly smaller than 10 µM; on equality or larger values it gives n.

Mol Smiles: Cc1ccc(C2=C(O)/C(=C/c3ccc(-c4ccc(C)cc4)cc3)OC2=O)cc1
Category: n

Qu. Regarding `CC(C)(C)c1ccc(-c2ccc(C3=C(O)/C(=C/c4cccc(C(F)(F)F)c4)OC3=O)cc2)cc1` , kindly confirm whether its IC50 is beneath 10 µM.
Ans. y

Qu. Please indicate whether the reported IC50 of `O=C1O/C(=C\c2cc(C(F)(F)F)ccc2F)C(O)=C1c1ccc(-c2ccccc2)cc1` is strictly below 10 µM.
Ans. n

Numbers sourced from patent US7495027B2.
